Target: Phosphatidylinositol 4,5-bisphosphate 3-kinase catalytic subunit delta isoform (Homo sapiens, UniProt O00329)
Sequence (O00329 whole entry, canonical isoform): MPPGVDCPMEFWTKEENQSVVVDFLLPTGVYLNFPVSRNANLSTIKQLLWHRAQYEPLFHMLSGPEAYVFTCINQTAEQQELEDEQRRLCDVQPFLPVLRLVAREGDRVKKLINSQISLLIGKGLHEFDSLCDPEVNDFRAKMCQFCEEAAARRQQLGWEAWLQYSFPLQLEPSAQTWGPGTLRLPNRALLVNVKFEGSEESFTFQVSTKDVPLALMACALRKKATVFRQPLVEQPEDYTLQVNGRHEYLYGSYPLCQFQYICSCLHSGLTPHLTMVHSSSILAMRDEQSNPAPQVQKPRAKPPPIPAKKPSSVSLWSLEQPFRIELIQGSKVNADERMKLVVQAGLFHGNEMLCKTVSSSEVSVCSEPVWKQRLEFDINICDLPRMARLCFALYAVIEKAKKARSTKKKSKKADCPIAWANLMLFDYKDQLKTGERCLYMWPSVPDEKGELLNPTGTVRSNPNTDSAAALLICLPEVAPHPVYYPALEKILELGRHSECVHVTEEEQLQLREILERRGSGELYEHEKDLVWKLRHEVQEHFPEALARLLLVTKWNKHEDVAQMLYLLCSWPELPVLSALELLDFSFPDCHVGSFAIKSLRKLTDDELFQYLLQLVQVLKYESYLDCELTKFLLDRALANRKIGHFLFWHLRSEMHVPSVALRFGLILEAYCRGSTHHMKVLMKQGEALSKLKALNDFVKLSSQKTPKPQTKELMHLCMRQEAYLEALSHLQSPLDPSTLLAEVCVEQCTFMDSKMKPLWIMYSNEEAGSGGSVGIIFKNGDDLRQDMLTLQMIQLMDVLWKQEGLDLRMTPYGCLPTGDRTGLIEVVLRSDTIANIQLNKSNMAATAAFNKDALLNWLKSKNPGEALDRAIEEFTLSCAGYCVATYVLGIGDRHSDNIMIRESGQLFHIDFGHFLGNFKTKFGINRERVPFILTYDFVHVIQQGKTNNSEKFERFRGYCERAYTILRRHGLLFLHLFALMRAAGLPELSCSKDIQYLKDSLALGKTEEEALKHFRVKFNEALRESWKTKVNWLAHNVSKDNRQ
Experiment: Scintillation Proximity Assay
pIC50: −log10 of the molar value.
quantity_name: pIC50

Input: // lookup pIC50 for CCOc1c(C(C)n2cc(C)c3c(N)ncnc32)cc(Cl)c(C#N)c1C1CN([C@@H](C)CO)C1 (stereo partly drawn)
Output: > 8.00

Input: // lookup pIC50 for COc1c([C@H](C)n2cc(C)c3c(N)ncnc32)cc(Cl)c(C#N)c1C1CN([C@@H](C)CO)C1
Output: > 8.00

Input: // lookup pIC50 for COc1c(C(C)n2nc(C)c3c(N)ncnc32)cc(Cl)c(C)c1-c1ccnc(C(=O)C(C)C)c1 (stereo not drawn)
Output: > 8.00
